Biological target: C-C chemokine receptor type 5 (CCR5) (Homo sapiens, UniProt P51681 P51681:1-352)
Sequence (P51681 whole entry, one chain of several): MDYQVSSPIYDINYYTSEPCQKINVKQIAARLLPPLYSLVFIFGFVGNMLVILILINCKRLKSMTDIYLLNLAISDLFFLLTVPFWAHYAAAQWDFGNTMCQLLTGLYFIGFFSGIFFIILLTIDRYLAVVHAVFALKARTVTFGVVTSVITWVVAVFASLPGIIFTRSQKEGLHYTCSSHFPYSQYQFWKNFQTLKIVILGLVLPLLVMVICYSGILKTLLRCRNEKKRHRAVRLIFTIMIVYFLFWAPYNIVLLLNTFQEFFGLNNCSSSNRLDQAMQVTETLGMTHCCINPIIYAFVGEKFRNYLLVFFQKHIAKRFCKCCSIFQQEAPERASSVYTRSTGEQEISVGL
Experiment: cell_activity; HIV-1 R5 BaL p24 day 3; day 5 354.3 ± 113.3, day 7 >1000
Details: tags: endogenous on primary PBMC-CD4+ cells
Experimental: PBMCs were freshly isolated from healthy donors and CD8 cells were depleted as described above. After culture for 3 days in the activated T-cell culture medium containing interleukin-2, the cell-surface CCR5 level of PBMCs was detected by flow cytometry as described previously. HIV-1 protection assay was performed in 24-well tissue culture plates. Duplicate night-point dilution series of experimental RNAs were prepared and refolded in refolding buffer. […]
measure name: pIC50
Lab note: report pIC50 as minus log10 of the concentration in molar units, number only.

(Q) What does the record list as pIC50 for G-3 aptamer (ssRNA, 2'-F pyrimidines (2'-F-C, 2'-F-U)) RNA: GGGAGGACGAUGCGGGCCUUCGUUUGUUUCGUCCACAGACGACUCGCCCGA ?
(A) 6.46
